- Experiment notes: Solubility atpH 5.2
- Format: physicochemical
- Stated conditions: pH 5.2
Test readout: solubility (mg/mL)
Lab book: enter the figure in mg/mL, no units written.

What measured solubility goes with O=c1cc(-c2ccc3c(c2)ncn3-c2ccccc2)ccn1CCCN1CCCCC1 ? 33.9

* * *

- Experiment notes: Volume distribution (Vdss) of compound was determined after intravenous administration in average of two dogs at a dose of 1 mg/kg
- Assay type: ADME, organism-based, Canis lupus familiaris
- Parameters: dose 1 mg/kg, route intravenous
- Stated conditions: dog, in vivo, read-out: Vdss
Test readout: Vd
Write the quantity with the unit trailing the number.

1) O=c1cc(-c2ccc3c(c2)ncn3-c2ccccc2)ccn1CCCN1CCCCC1 | 7.9 L/kg

Now look at this entry.
What measured Vd goes with c1ccc(-n2cnc3cc(-c4ccc(OCCN5CCCCC5)cc4)ccc32)cc1 ? 3.1 L/kg
